Data provenance: patent US20230159502A1

So I've got a bunch of molecules here, and I need their pEC50 values.
- ASSAY TARGET: NL20 human bronchial epithelial cells expressing human Z-AAT (Homo sapiens, UniProt P01009, E366K)
- Construct: doxycycline added with compounds)
- Sequence (P01009 25-418 E366K): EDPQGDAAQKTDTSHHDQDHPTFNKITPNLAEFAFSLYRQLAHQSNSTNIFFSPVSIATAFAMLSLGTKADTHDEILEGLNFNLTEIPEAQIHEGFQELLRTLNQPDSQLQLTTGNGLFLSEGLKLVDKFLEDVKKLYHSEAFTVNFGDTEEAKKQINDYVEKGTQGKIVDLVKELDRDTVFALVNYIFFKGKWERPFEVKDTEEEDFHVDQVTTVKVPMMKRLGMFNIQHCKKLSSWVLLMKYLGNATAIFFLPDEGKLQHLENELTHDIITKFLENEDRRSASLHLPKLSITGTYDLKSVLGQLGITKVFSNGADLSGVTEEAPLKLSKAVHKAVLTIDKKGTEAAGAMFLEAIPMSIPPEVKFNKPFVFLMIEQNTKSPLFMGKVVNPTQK
- METHOD SUMMARY: AAT Function Assay (MSD Assay NL20-SI Cell Line)
- ASSAY CONDITIONS: read-out: NL20 Functional EC50
pEC50: −log10 of the molar value.

{"columns": ["MOLECULE", "pEC50"],
 "data": [
  ["COCC(C)(C)c1c(-c2ccc(C(=O)O)s2)c2c(O)cc(F)cc2n1-c1ccc(F)c(F)c1", "5.70 to 6.30"],
  ["Cc1cc(-n2c(C3CCCOC3)c(-c3ccc(C(=O)O)cc3)c3c(O)cc(F)cc32)ccc1F (stereo not shown) [Compound 309]", "> 6.30"],
  ["COc1cc(-n2c(C3CCOCC3)c(-c3ccc(C(=O)O)cc3)c3c(O)cccc32)ccc1F", "> 6.30"],
  ["CCOc1cc(-c2c(C(C)(C)CC#N)n(-c3ccc(F)c(C)c3)c3cc(F)cc(O)c23)ccc1C(=O)O", "> 6.30"],
  ["COCC(C)(C)c1c(-c2ccc(C(=O)O)cc2)c2c(O)cccc2n1-c1ccc(F)cc1", "> 6.30"]
]}

Items follow; give pEC50 for each.
1. CC(C)(C)c1c(-c2ccc(C(=O)O)c(F)c2)c2c(O)cccc2n1-c1ccc(F)cc1
2. O=C(O)c1cc(-c2c(C3CCOCC3)n(-c3ccc(F)cc3)c3cccc(O)c23)ccn1

Result block:
> 6.30
< 5.70
